Assay system: UniProt Q9UIF7
Sequence (whole entry): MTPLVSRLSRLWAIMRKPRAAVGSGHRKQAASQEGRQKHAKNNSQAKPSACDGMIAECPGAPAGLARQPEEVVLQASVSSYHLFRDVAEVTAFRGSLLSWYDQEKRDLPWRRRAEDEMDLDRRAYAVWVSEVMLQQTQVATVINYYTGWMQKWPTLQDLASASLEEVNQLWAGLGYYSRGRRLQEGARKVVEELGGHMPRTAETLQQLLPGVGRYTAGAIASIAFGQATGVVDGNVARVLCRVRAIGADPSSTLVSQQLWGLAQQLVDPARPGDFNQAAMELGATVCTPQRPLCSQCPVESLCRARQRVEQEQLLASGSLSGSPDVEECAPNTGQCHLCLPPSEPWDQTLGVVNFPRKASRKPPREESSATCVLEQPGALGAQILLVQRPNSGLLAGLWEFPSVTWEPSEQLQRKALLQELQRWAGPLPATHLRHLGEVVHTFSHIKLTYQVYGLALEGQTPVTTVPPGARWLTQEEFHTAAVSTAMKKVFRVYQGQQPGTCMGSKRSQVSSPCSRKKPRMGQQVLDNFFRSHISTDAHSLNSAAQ
Test conditions: Compound Concentration 10.0 uM, Hit No;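 note: human MUTYH activity read as 594 nm fluorescence from cleavage and release of a quenched DNA duplex, coupled with APE1 for strand incision, lower signal meaning inhibition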
Description: Inhibition of MUTYH by quantifying inhibition of MUTYH-mediated cleavage and dissociation of quenched duplex DNA oligonucleotides, measured as fluorescence at 594 nm. To generate a functional strand incision and increase turn-over this assay is coupled to APE1.
Value type: inhibition (%)
Value expressed in %; do not type the unit.

# Compound, Assay system, Value unit, Obs value
data = [
    ("Cc1noc(-c2ccc(-c3ccc(CC(=O)O)cc3)cc2)c1NC(=O)O[C@H](C)c1ccccc1Cl", "UniProt Q9UIF7", "%", 53.1),
    ("Cc1nc(C2CCN(C(=O)c3ccc(OC(F)(F)F)cc3N)CC2)c2ncc(N3CCN(C)CC3)cc2n1", "UniProt Q9UIF7", "%", 9.15),
]

q: Find inhibition (UniProt Q9UIF7) for the entry `Cc1cc(-c2ccc3c(c2)CC[C@H]3N2CC3(CCN(C(=O)Cc4cn5cc(C)sc5n4)CC3)C2)ncn1`
a: 0.491

q: // repeat for Cc1ccccc1C(=O)Nc1ccc(C(=O)N2CCCC(N(C)C)c3ccccc32)cc1 (centres undefined) and report
a: 10.3
